assay: AUC (infinity) in cynomolgus monkey at 5 mg/kg, po; format: ADME, organism-based, Macaca fascicularis; design: time infinity, dose 5 mg/kg, route oral; settings: plasma
Readout type: AUC(0-inf) (µM·h)
Give bare numbers, in µM·h.

Per the records, this compound ( `Cc1c(Cc2cccc(NS(N)(=O)=O)c2F)c(=O)oc2cc(OC(=O)N(C)C)c(F)cc12` ) has AUC(0-inf) equal to 2.2

* * *

test: AUC (infinity) in Crlj:CD rat at 10 mg/kg, po; format: ADME, organism-based; set-up: time infinity, dose 10 mg/kg, route oral; settings: plasma
Readout type: AUC(0-inf) (µM·h)
Numbers only, in µM·h.

Per the records, this molecule ( `Cc1c(Cc2cccc(NS(N)(=O)=O)c2F)c(=O)oc2cc(OC(=O)N(C)C)c(F)cc12` ) has AUC(0-inf) equal to 6

src = ChEMBL document CHEMBL3085763
